test system: Escherichia coli ED1a; test: growth AUC relative to DMSO control (median of replicates) (fraction); higher = more growth (less inhibition), active = hit call of the paper; conditions: 20 µM; 24 h
Class t: growth AUC at least 1. Class f: growth AUC below 1.

structure | group.label
c1cc2ccc3ccc4ccc5cccc6c(c1)c2c3c4c56 | t
CCCN(CCC)C(=O)SCC | f
N#Cc1cc(Cl)c(O)c(Cl)c1 | f
S=C([S-])NCCNC(=S)[S-].[Mn+2] | t
CCN(CC)C(=O)SCc1ccccc1Cl | t
CSc1nc(NC2CC2)nc(NC(C)(C)C)n1 | t
Br[C@@H]1CC[C@@H](Br)[C@@H](Br)CC[C@@H](Br)[C@@H](Br)CC[C@H]1Br | f

###

tested on: Clostridium difficile; assay: growth AUC relative to DMSO control (median of replicates) (fraction); higher = more growth (less inhibition), active = hit call of the paper; conditions: 20 µM; 24 h;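 active = AUC reduced over 20% with Padj below 0.05 in at least 2 of 3 replicates; inactive = otherwise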
Possible outcomes: TRUE (active), FALSE (inactive)

molecule | test.target | group.label
CC(C)(C)Nc1nc(N)nc(Cl)n1 | Clostridium difficile | FALSE
NC(=O)c1c(Cl)cccc1Cl | Clostridium difficile | FALSE
COC(=O)c1ccccc1S(=O)(=O)NC(=O)Nc1nc(OC(F)F)cc(OC(F)F)n1 | Clostridium difficile | FALSE
COc1nc(C)nc(NC(=O)NS(=O)(=O)c2ccccc2OCCCl)n1 | Clostridium difficile | FALSE
O=C(O)Cc1c[nH]c2ccccc12 | Clostridium difficile | FALSE
CCNc1nc(NC(C)CC)nc(OC)n1 (stereo unspecified) | Clostridium difficile | FALSE
CCOC(=O)Cn1c(=O)sc2cccc(Cl)c21 | Clostridium difficile | FALSE
CCCCOC(=O)C(C)Oc1ccc(Oc2ccc(C(F)(F)F)cn2)cc1 (stereo unspecified) | Clostridium difficile | FALSE
Cc1cc(C2CC2)nc(Nc2ccc(O)cc2)n1 | Clostridium difficile | FALSE
COC(=O)c1ccc(I)cc1S(=O)(=O)[N-]C(=O)Nc1nc(C)nc(OC)n1.[Na+] | Clostridium difficile | FALSE
COc1nc(N)nc(C(F)(F)F)n1 | Clostridium difficile | FALSE
CCNc1nc(NCC)nc(OC)n1 | Clostridium difficile | FALSE
C[C@@]1(c2ccccc2)NC(=O)N(Nc2ccccc2)C1=O | Clostridium difficile | FALSE
Cc1cc(C)c(C2=C(O)C3(CCCC3)OC2=O)c(C)c1 | Clostridium difficile | FALSE
NC(=S)Nc1cccc2ccccc12 | Clostridium difficile | FALSE
ClC=C(c1ccc(Cl)cc1)c1ccc(Cl)cc1 | Clostridium difficile | FALSE
O=C(O)[C@@H](S)[C@@H](S)C(=O)O | Clostridium difficile | FALSE
CN(C)C(=O)Nc1ccc(Cl)c(Cl)c1 | Clostridium difficile | FALSE
COC1CCC2(CC1)NC(=O)C(c1cc(C)ccc1C)=C2O (stereo unspecified) | Clostridium difficile | FALSE
Cn1cc(C(=O)Nc2ccc(F)cc2-c2ccc(Cl)c(Cl)c2)c(C(F)F)n1 | Clostridium difficile | FALSE
Cc1nn(C)c(OCC(=O)c2ccccc2)c1C(=O)c1ccc(Cl)cc1Cl | Clostridium difficile | FALSE
Oc1c(Cl)cc(Cl)c(Cl)c1Cc1c(O)c(Cl)cc(Cl)c1Cl | Clostridium difficile | TRUE
N[C@@H](Cc1cc(I)c(Oc2cc(I)c(O)c(I)c2)c(I)c1)C(=O)O | Clostridium difficile | FALSE
CNC(=O)Nc1nc2ccccc2s1 | Clostridium difficile | FALSE
Cc1cc(CC(C)CC(C)(C)C)n(O)c(=O)c1.NCCO (stereo unspecified) | Clostridium difficile | FALSE
COC1CCC2(CC1)NC(=O)C(O)(c1cc(C)ccc1C)C2=O (stereo unspecified) | Clostridium difficile | FALSE
c1cc2ccc3ccc4ccc5cccc6c(c1)c2c3c4c56 | Clostridium difficile | FALSE
COc1c(I)cc(C#N)cc1I | Clostridium difficile | FALSE
CCCCCC(C)OC(=O)COc1ccc(Cl)c2cccnc12 (stereo unspecified) | Clostridium difficile | FALSE
Cc1c(C(=O)c2c[nH]n(C)c2=O)ccc(S(C)(=O)=O)c1C1=NOCC1 | Clostridium difficile | FALSE
CCOC(=O)Nc1cccc(OC(=O)Nc2cccc(C)c2)c1 | Clostridium difficile | FALSE
CCNc1nc(N)[nH]c(=O)n1 | Clostridium difficile | FALSE
NS(=O)(=O)[O-].[NH4+] | Clostridium difficile | FALSE
c1ccc2c(c1)ccc1ccccc12 | Clostridium difficile | FALSE
CC(C)OC(=O)N[C@H](C(=O)N[C@H](C)c1nc2ccc(F)cc2s1)C(C)C | Clostridium difficile | FALSE
CC(C)NS(=O)(=O)NC(=O)c1cc(NC(N)=O)c(F)cc1Cl | Clostridium difficile | FALSE
COC(=O)c1ccc(C(F)(F)F)nc1S(=O)(=O)[N-]C(=O)Nc1nc(OC)cc(OC)n1.[Na+] | Clostridium difficile | FALSE
Cc1[nH]n(C)c(=O)c1C(=O)c1ccc(C(F)(F)F)cc1S(C)(=O)=O | Clostridium difficile | FALSE
O=C(Nc1ccc(Cl)cc1C(O)c1ccccc1)c1ccncc1 (stereo unspecified) | Clostridium difficile | FALSE
c1ccc(Nc2ccccc2)cc1 | Clostridium difficile | FALSE
Clc1ccc(C(c2ccccc2Cl)C(Cl)Cl)cc1 (stereo unspecified) | Clostridium difficile | FALSE
COC(=O)c1csc(C)c1S(=O)(=O)NC(=O)n1nc(OC)n(C)c1=O | Clostridium difficile | FALSE
COc1cc(OC)nc(NC(=O)NS(=O)(=O)Nc2ccccc2C(=O)C2CC2)n1 | Clostridium difficile | FALSE
C/C=C/C=C/CCCCCCCO | Clostridium difficile | FALSE
CC(C)(C)C(O)/C(=C\c1ccc(Cl)cc1)n1cncn1 (stereo unspecified) | Clostridium difficile | FALSE
CCOC(=O)C(C)Oc1ccc(Oc2nc3ccc(Cl)cc3o2)cc1 (racemic) | Clostridium difficile | FALSE

###

test system: Parabacteroides merdae; assay: growth AUC relative to DMSO control (median of replicates) (fraction); higher = more growth (less inhibition), active = hit call of the paper; conditions: 20 µM; 24 h;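 active = AUC reduced over 20% with Padj below 0.05 in at least 2 of 3 replicates; inactive = otherwise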
Possible outcomes: T = active, F = inactive

compound | group.label
CN(C)C(=O)SCCCCOc1ccccc1 | F
COC1CCC2(CC1)NC(=O)C(c1cc(C)ccc1C)=C2OC1OC(CO)C(O)C(O)C1O (stereo not given) | F
CS(=O)(=O)c1ccc(C(=O)C2C(=O)C(O)CC(O)C2=O)c(Cl)c1COCC(F)(F)F (stereo not given) | F
CCCNCCOc1c(Cl)cc(Cl)cc1Cl | F
COC1CCC2(CC1)NC(=O)C(c1cc(C)ccc1C)=C2O (stereo not given) | F
CCOC(=O)[C@@H](C)Oc1ccc(Oc2nc3ccc(Cl)cc3o2)cc1 | F
O.O=C(Nc1ccc([N+](=O)[O-])cc1Cl)c1cc(Cl)ccc1O | T
Cc1cc(C)cc(OCC(C)Nc2nc(N)nc(C(C)(C)F)n2)c1 (stereo not given) | F
CCCCCCCCSCCO | F
S=C([S-])NCCNC(=S)[S-].S=C([S-])NCCNC(=S)[S-].[Mn+2].[Zn+2] | F

###

Consider the following compounds and their measured growth AUC readings.
system: Bacteroides dorei; assay: growth AUC relative to DMSO control (median of replicates) (fraction); higher = more growth (less inhibition), active = hit call of the paper; settings: 20 µM; 24 h
value.kind: growth AUC

compound | recorded.result
COC(=O)c1c(Cl)ccc(Cl)c1OC | 1.04
O=[N+](Nc1ccccc1)c1ccccc1 | 0.997
COc1cc(OC)nc(NC(=O)NS(=O)(=O)c2c(-c3nnn(C)n3)cnn2C)n1 | 0.94
CC(C)N(C(=O)CS(=O)CC(=O)O)c1ccc(F)cc1 (stereo not drawn) | 0.969
CCOc1ccc2c(c1)C(C)=CC(C)(C)N2 | 1
CC(C)OC(=O)N[C@H](C(=O)N[C@H](C)c1nc2ccc(F)cc2s1)C(C)C | 0.934
O=[N+]([O-])c1ccc(O)cc1 | 1.01
CON(C(=O)c1cc(C)oc1C)C1CCCCC1 | 1
Nc1nc2ccccc2[nH]1 | 0.911
O=c1cccc2n1CCn1c-2cccc1=O | 0.918
CCc1nc2ncnn2c(N)c1CCCCCC(=O)O.Cl | 1.03
C#CCN(C)c1c(C#N)cnn1-c1nn2c(c1Cl)CCCC2 | 0.987
CC(C)(SC(=O)N1CCCCC1)c1ccccc1 | 1.01
C=CCc1ccc(OC)c(OC)c1 | 1.06
COc1cc(OC)nc(Sc2cccc3c2C(=O)OC3C)n1 (stereo not drawn) | 1.04
C/C=C/C=C/CCCCCCCO | 1.02
Oc1ccccc1O | 1
CCCN(CCOc1c(Cl)cc(Cl)cc1Cl)C(N)=O | 0.935
ClC=C(c1ccc(Cl)cc1)c1ccc(Cl)cc1 | 0.914
CC(CNC(=S)[S-])NC(=S)[S-].[Zn+2] (mixture of isomers) | 1
Oc1ccc2ccccc2c1N=Nc1ccccc1 | 0.977
CC(C)(NC(=O)NCc1ccccc1Cl)c1ccccc1 | 0.925
CN(C)C(=O)Nc1ccccc1 | 1
COC(=O)c1ccccc1S(=O)(=O)NC(=O)n1nc(OCC(C)O)n(C)c1=O (stereo not drawn) | 0.992
CCOc1ccc(NC(=O)OC(C)C)cc1OCC | 0.928
CCOC(=O)c1nc(C(Cl)(Cl)Cl)n(-c2ccc(Cl)cc2Cl)n1 | 0.99
CCCCC(CC)COC(=O)COc1ccc(Cl)cc1C (stereo not drawn) | 0.977
CCNC(=O)[C@@H](C)OC(=O)Nc1ccccc1 | 0.992
COc1cc(Cl)ccc1Oc1ccc(Cl)cc1Cl | 0.948
CNC(=O)Nc1nc2ccccc2s1 | 0.959
CCc1cccc(C)c1N(C(=O)C(=O)O)C(C)COC (stereo not drawn) | 1.02
COC(=O)c1ccc(C(F)(F)F)nc1S(=O)(=O)[N-]C(=O)Nc1nc(OC)cc(OC)n1.[Na+] | 1.01
O=C=NC1CCC(CC2CCC(N=C=O)CC2)CC1 (stereo not drawn) | 0.939
CC(C)N(C)S(=O)(=O)NC(=O)c1cc(-n2c(=O)cc(C(F)(F)F)[nH]c2=O)c(F)cc1Cl | 0.967
Oc1ccccc1 | 1.03
FC(F)(F)c1cccc(C(c2ccccc2)(c2ccccc2)n2cncn2)c1 | 0.92
CC(C)N(C(=O)CS(=O)(=O)[O-])c1ccc(F)cc1.[Na+] | 0.984
CCSC(=O)N(CC(C)C)CC(C)C | 1.02
CCCNCCOc1c(Cl)cc(Cl)cc1Cl | 0.985
COC(=O)C(C)Oc1ccc(Oc2ncc(C(F)(F)F)cc2Cl)cc1 (stereo not drawn) | 0.964
CCc1cccc(CC)c1N(COC)C(=O)CS(=O)(=O)[O-].[Na+] | 0.989
O=S(=O)(Oc1ccc(Cl)cc1Cl)c1ccccc1 | 0.939
CCOC(=O)[C@@H](C)Oc1ccc(Oc2nc3ccc(Cl)cc3o2)cc1 | 0.983
CN1CCC[C@H]1c1cccnc1 | 1.04
COCCN(C(=O)CO)c1c(C)cccc1C(=O)O | 0.964
COC(=O)c1ccc(CNS(C)(=O)=O)cc1S(=O)(=O)NC(=O)Nc1nc(OC)cc(OC)n1 | 1.01
c1ccc2cc3ccccc3cc2c1 | 1
CC(Oc1ccc(Cl)cc1Cl)C(=O)NC(C)(C#N)C(C)C (stereo not drawn) | 0.999
